Listed below: Kd values for each entry.
Biological target: T1, EsCas13d, nuclease-dead (Eubacterium siraeum, UniProt B0MS50, R295A;H300A;R849A;H854A)
T1 sequence: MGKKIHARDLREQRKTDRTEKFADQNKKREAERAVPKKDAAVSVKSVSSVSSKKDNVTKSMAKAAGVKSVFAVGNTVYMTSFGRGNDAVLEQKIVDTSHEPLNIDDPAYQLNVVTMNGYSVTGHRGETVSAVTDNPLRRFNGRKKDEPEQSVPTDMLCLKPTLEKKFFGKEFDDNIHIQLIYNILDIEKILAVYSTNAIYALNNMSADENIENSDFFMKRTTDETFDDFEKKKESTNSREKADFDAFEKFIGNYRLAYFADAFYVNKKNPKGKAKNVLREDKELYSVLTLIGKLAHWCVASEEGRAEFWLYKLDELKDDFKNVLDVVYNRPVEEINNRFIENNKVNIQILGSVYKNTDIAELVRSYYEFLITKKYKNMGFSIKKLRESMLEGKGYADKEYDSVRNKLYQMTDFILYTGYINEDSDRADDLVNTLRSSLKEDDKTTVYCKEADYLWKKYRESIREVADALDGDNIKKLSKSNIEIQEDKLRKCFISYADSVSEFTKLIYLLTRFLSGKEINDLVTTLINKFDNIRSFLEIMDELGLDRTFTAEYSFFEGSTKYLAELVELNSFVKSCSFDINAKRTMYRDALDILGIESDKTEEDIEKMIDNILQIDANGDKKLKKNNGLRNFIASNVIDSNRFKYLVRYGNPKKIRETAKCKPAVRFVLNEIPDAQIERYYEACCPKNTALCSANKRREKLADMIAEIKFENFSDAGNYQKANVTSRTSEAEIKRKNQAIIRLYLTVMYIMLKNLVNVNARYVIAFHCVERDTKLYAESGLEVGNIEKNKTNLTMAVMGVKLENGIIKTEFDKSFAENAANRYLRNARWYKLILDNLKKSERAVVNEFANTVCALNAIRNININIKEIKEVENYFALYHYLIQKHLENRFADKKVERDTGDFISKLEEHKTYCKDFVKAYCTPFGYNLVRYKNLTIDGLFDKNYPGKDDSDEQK
Experiment: crRNA (strand 1, pre-loaded); Mg2+; 40 mM Tris-HCl pH 7.5, 150 mM NaCl, 6 mM MgCl2, 1 mM DTT, 0.1% Tween-20, 0.2 mg/ml BSA; 25 C; 10 min per concentration, then washed
Details: tags: His6-TwinStrep-SUMO cleaved; N-terminal SNAP kept (SNAP-Surface 488); label: 3' end held by stalled T7 RNA polymerase
Response body: numeric value in nM, unit text excluded.

Below are worked cases with known answers.
BINDER: target 1 insU 3' of 7,insU 3' of 4 (mixed) RNA 1: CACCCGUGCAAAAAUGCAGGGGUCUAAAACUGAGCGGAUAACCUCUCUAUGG RNA 2: GGGAAUGGAUCCACAUCUACGAAUUCGUACCAUAGAGAGGUUAUCUCGCUUCACCGAGAUCGGAAGAGCACACGU
Kd (nM): 15.2

BINDER: target 3 U2G,A5C (mixed) RNA 1: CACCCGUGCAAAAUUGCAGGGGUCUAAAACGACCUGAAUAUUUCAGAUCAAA RNA 2: GGGAAUGGAUCCACAUCUACGAAUUCGUUUUUGAUCUGAAAUAUUCCGGGCUGCAGAUCGGAAGAGCACACGU
Kd (nM): 120

BINDER: target 1 U3C,C4G (mixed) RNA 1: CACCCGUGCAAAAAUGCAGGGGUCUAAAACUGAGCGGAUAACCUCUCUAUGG RNA 2: GGGAAUGGAUCCACAUCUACGAAUUCGUACCAUAGAGAGGUUAUCCGGCCACCGAGAUCGGAAGAGCACACGU
Kd (nM): 11.4

BINDER: target 1 insC 3' of 15,insC 3' of 3 (mixed) RNA 1: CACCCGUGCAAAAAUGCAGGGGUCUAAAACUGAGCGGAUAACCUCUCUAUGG RNA 2: GGGAAUGGAUCCACAUCUACGAAUUCGUACCAUAGAGCAGGUUAUCCGCUCCACCGAGAUCGGAAGAGCACACGU
Kd (nM): 17.3

BINDER: target 1 insU 3' of 20,insU 3' of 15 (mixed) RNA 1: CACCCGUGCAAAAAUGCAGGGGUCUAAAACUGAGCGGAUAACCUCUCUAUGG RNA 2: GGGAAUGGAUCCACAUCUACGAAUUCGUACCAUUAGAGUAGGUUAUCCGCUCACCGAGAUCGGAAGAGCACACGU
Kd (nM): 19.1

BINDER: target 1 U8G,G15C (mixed) RNA 1: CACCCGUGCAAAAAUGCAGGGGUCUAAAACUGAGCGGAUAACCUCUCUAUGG RNA 2: GGGAAUGGAUCCACAUCUACGAAUUCGUACCAUAGACAGGUUAGCCGCUCACCGAGAUCGGAAGAGCACACGU
Kd (nM): 90

Entry under review: target 1 insG 3' of 18,insU 3' of 2 (mixed) RNA 1: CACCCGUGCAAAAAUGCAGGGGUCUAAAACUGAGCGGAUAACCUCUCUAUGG RNA 2: GGGAAUGGAUCCACAUCUACGAAUUCGUACCAUAGGAGAGGUUAUCCGCUCUACCGAGAUCGGAAGAGCACACGU . Reported Kd?
84

Same thing, different binder: target 3 insC 3' of 22,insA 3' of 22 (mixed) RNA 1: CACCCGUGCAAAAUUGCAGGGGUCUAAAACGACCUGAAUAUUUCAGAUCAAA RNA 2: GGGAAUGGAUCCACAUCUACGAAUUCGUUUCAUUGAUCUGAAAUAUUCAGGUCUGCAGAUCGGAAGAGCACACGU
20.2

Same thing, different binder: target 1 C6U,C21A (mixed) RNA 1: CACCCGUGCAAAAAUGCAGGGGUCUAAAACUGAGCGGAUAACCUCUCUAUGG RNA 2: GGGAAUGGAUCCACAUCUACGAAUUCGUACAAUAGAGAGGUUAUCUGCUCACCGAGAUCGGAAGAGCACACGU
26.2

Same thing, different binder: target 1 insU 3' of 9,insG 3' of 2 (mixed) RNA 1: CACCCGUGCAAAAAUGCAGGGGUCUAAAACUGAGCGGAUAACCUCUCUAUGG RNA 2: GGGAAUGGAUCCACAUCUACGAAUUCGUACCAUAGAGAGGUUAUUCCGCUCGACCGAGAUCGGAAGAGCACACGU
24.6

Same thing, different binder: target 1 G12C,C21U (mixed) RNA 1: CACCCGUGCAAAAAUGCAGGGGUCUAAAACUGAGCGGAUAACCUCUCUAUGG RNA 2: GGGAAUGGAUCCACAUCUACGAAUUCGUACUAUAGAGAGCUUAUCCGCUCACCGAGAUCGGAAGAGCACACGU
6

Same thing, different binder: target 1 insU 3' of 13,insU 3' of 12 (mixed) RNA 1: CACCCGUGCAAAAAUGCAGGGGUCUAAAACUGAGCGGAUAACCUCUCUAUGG RNA 2: GGGAAUGGAUCCACAUCUACGAAUUCGUACCAUAGAGAGUGUUUAUCCGCUCACCGAGAUCGGAAGAGCACACGU
11.8

Same thing, different binder: target 3 complement block 3-6 (mixed) RNA 1: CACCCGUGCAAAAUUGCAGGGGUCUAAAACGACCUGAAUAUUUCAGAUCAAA RNA 2: GGGAAUGGAUCCACAUCUACGAAUUCGUUUUUGAUCUGAAAUAUUGUCCUCUGCAGAUCGGAAGAGCACACGU
57

Same thing, different binder: target 2 MT 5'PFS AGG 3'PFS CGC (mixed) RNA 1: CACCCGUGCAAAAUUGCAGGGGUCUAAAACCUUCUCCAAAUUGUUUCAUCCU RNA 2: GGGAAUGGAUCCACAUCUACGAAUUCAGGAGGAUGAAACAAUUUGGAGAAGCGCAGAUCGGAAGAGCACACGU
4.7

Same thing, different binder: target 1 insG 3' of 19,insU 3' of 2 (mixed) RNA 1: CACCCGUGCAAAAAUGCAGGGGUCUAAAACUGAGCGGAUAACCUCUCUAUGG RNA 2: GGGAAUGGAUCCACAUCUACGAAUUCGUACCAUGAGAGAGGUUAUCCGCUCUACCGAGAUCGGAAGAGCACACGU
57
